Hello, the source for this data is patent US20250313612A1, in case you need it.

molecular target: RSV F protein of subtype A (strain A2) on recombinant mKate-RSV (Respiratory syncytial virus subtype A …, UniProt P03420 26-574); assay: cell-based or functional assay
QUANTITY_NAME: Neut IC50 (µg/ml) subtype A

{"BINDER": "ADI-14544 (antibody, V domains shown) VH: QVQLVQSGAEVKKPGESLKISCKGAGFGSTNSWIGWVRQMPGKGLEWMGVIFPGDSDTKYSPTFQGQVTISVDKSINTAYLQWSSLKASDTAIYYCARMLASVGLSNFDAWGQGTLVTVSS VL: QPVLTQPPSVSLAPGKTATITCGGNNIGGKSVHWYQQKPGQAPVLVIDYDSDRPSGIPERFSGSNSGNTATLTINRVEAGDEADYYCQVWDSISDHVLFGGGTKLTVL", "QUANTITY_NAME": "Neut IC50 (µg/ml) subtype A", "TEST_VALUE": "> 10 µg/mL"}

Supply measured Neut IC50 (µg/ml) subtype A of ADI-14528 (antibody, V domains shown, IgG; also called Antibody Number 88) VH: QVQLVQSGAEVKKPGSSVKVSCKVAGGSFSNYAIAWLRQAPGQGLEWMGGIIPAFNRAMYARKFQDRVTITAYASTTTAYLDITGLRSEDTALYYCARPAGDFGDLKWVRSPFDYWGQGTLVTVSS VL: ETTLTQSPGTLSVSPGERATLSCRASQEVGINLAWYQQKPGQAPRLLIYGASTRATDVPARFSGSGSGTEFTLTISSLQSEDFAVYYCQEYNDWPPQLTFGPGTKVDIK in your reply. > 10 µg/mL
